The reported numbers originate from patent US12091393B2.

# Tested on: NF-κB
# Assay: Measurement of NF-κB activation using THP1-Blue NF-κB cells (SEAP)
# Type: cell-based
# Study conditions: compound 5 μM + LPS, 20 h; two point normalized, compound 1 as 200%, LPS (10 ng/mL) as 100%; read-out: NF-κB SEAP Compound + LPS % Activation
I'd appreciate it if you could supply activity at 5 µM values for the items below.
Enter the number, and then the unit.

Please report the recorded activity at 5 µM for C#CCN(C(=O)c1ccc(S(=O)(=O)N2CCCCC2)cc1)c1nc(-c2cc(C)ccc2C)cs1 [Compound 34d] .
97.7%

Repeat for the following compound: Cc1ccc(C)c(Cc2csc(NC(=O)c3ccc(S(=O)(=O)N4CCCCC4)cc3)n2)c1 [Compound 12f]
108%

Repeat for the following compound: Cc1ccc(C)c(-c2csc(NC(=O)c3ccc(SC4CCCCC4)cc3)n2)c1 [Compound 49a]
114%

* * *

# Test system: NF-κB
# Assay: Measurement of NF-κB activation using THP1-Blue NF-κB cells (SEAP)
# Assay type: cell-based
# Study conditions: compound 5 μM + LPS, 20 h; two point normalized, compound 1 as 200%, LPS (10 ng/mL) as 100%; read-out: NF-κB SEAP Compound + LPS % Activation
Assay metric: activity at 5 µM (%)
Numeric answer only, unit % assumed.

Provide value of activity at 5 µM for this record tested with NF-κB: Cc1ccc(Br)cc1-c1csc(NC(=O)c2ccc(S(=O)(=O)N3CCCCC3)cc2)n1 [Compound 12e]
213

Repeat for the following molecule: Cc1ccc(N=[N+]=[N-])cc1-c1csc(NC(=O)c2ccc(S(=O)(=O)N3CCCCC3)cc2)n1
159

Repeat for the following molecule: Cc1ccc(C)c(-c2ccc(NC(=O)c3ccc(S(=O)(=O)N4CCCCC4)cc3)nc2)c1 [Compound 18c]
97.9

Repeat for the following molecule: Cc1ccc(C)c(-c2ccc(NC(=O)c3ccc(S(=O)(=O)N4CCCCC4)cc3)cn2)c1 [Compound 18d]
97.2

Repeat for the following molecule: Cc1ccc(N=[N+]=[N-])c(-c2csc(NC(=O)c3ccc(S(=O)(=O)N4CCCCC4)cc3)n2)c1
97.3

Repeat for the following molecule: CCN(CC)c1sc(NC(=O)c2ccc(S(=O)(=O)N3CCCCC3)cc2)nc1-c1cc(C)ccc1C [Compound 18g]
98.1

Repeat for the following molecule: CCCc1csc(NC(=O)c2ccc(S(=O)(=O)N3CCCCC3)cc2)n1 [Compound 12i]
94.2

* * *

I'd appreciate it if you could supply NF-κB FRET Compound + LPS % Activation values for the items below.
# Test system: NF-κB
# Assay: cell-based NF-κB FRET assay
# Study conditions: compound + LPS; two point normalized, compound 1 as 200%, LPS (10 ng/mL) as 100%
Numeric answer only, unit % assumed.

Provide value of NF-κB FRET Compound + LPS % Activation for this record tested with NF-κB: Cc1ccc(C)c(-c2nc(NC(=O)c3ccc(S(=O)(=O)N4CCCCC4)cc3)sc2C)c1 [Compound 18m]
186.92

Repeat for the following compound: CCCN1CCN(S(=O)(=O)c2ccc(C(=O)Nc3nc(-c4cc(C)ccc4C)cs3)cc2)CC1 [Compound 58k]
100.84

Repeat for the following compound: Cc1ccc(C)c(-c2nc(NC(=O)c3ccc(S(=O)(=O)N4CCCCC4)cc3)sc2-c2ccco2)c1 [Compound 18j]
160.49

Repeat for the following compound: Cc1ccc(C)c(-c2csc(NC(=O)c3ccc(S(=O)(=O)NC4CCCCC4)cc3)n2)c1 [Compound 58e]
52.23

Repeat for the following compound: CCCN(CC)S(=O)(=O)c1ccc(C(=O)Nc2nc(-c3cc(C)ccc3C)cs2)cc1 [Compound 58a]
158.36

* * *

# System: THP-1 cells
# Assay: Cell viability assay (MTT)
# Format: cell-based
# Study conditions: compound 5 μM alone, 18 h, normalized to DMSO as 100%
# Protocol: THP-1 cells were plated in 96-well plates (10^5 cells/well) in 100 μL RPMI supplemented with 10% FBS, 100 U/mL penicillin and 100 μg/ml streptomycin. […] After 18 h incubation, a solution of MTT in assay media (0.5 mg/mL) was added to each well and further incubated for 4 to 6 h, followed by addition of cell lysis buffer (15% w/v SDS and 0.12% v/v 12N HCl aqueous solution), incubated overnight, and then absorbance measured at 570 nm using 650 nm as reference using Tecan Infinite M200 plate reader.
Assay metric: MTT Compound alone % Viability (%)
Numeric answer only, unit % assumed.

Provide value of MTT Compound alone % Viability for this record tested with THP-1 cells: Cc1ccc(C)c(-c2csc(NC(=O)c3ccc(SC4CCCCC4)cc3)n2)c1 [Compound 49a]
85.22

Repeat for the following molecule: Cc1ccc(N=[N+]=[N-])cc1-c1csc(NC(=O)c2ccc(S(=O)(=O)N3CCCCC3)cc2)n1
90.50

Repeat for the following molecule: Cc1cc(C)cc(-c2csc(NC(=O)c3ccc(S(=O)(=O)N4CCCCC4)cc3)n2)c1 [Compound 12o]
92.91

Repeat for the following molecule: CC(=O)N1CCN(S(=O)(=O)c2ccc(C(=O)Nc3nc(-c4cc(C)ccc4C)cs3)cc2)CC1 [Compound 58j]
72.09
